The values you see were collected from PubChem BioAssay (NCI).

# System: KM12 colon
# experiment_notes: NCI-60 one-dose screen, 48 h (100 = growth as untreated, 0 = no growth, -100 = all killed)
# measurement_setup: 10 µM unless noted
The panel holds about 83,000 compounds, 20% with a hit somewhere; the sample as a whole holds those more often.
Catalogue of compounds with associated growth
Your answer is read as %, so omit the unit and give the number.

* Cc1c(C(N)=O)sc2c1c(=O)n(Cc1ccccc1)c1nnc(S(=O)(=O)CC(=O)Nc3ccc(Cl)cc3)n21 | 55
* OCCOc1c(Cl)cc(Cl)cc1Cl | 115
* CSc1ccc2c(c1)N(CCC1CCCCN1C)c1ccccc1S2 (configuration not stated) | 45

Lookup: Bench note: what growth did Oc1ccccc1/C=N\Nc1ccccc1 show?
Found: 19.8

Lookup: Also need COc1cccc(CCC2C(=O)CCCC2=O)c1 , thanks.
Found: 106

Lookup: Also need O=C(NN(C(=O)c1ccccc1)c1cccs1)c1ccccc1 , thanks.
Found: 117

Lookup: Also need O=c1ccn(C2OC(CO)C(O)C2F)c(=O)[nH]1 (configuration not stated) , thanks.
Found: 111

Lookup: Also need COc1ccc(-c2cn(-c3ccccc3)c(-c3ccccc3)n2)cc1OC , thanks.
Found: -3.88

Lookup: Also need COC1=CC(c2ccc[nH]2)=N/C1=C\c1[nH]c(C)c(C(=O)CCC(=O)Oc2ccc3c(c2)CCC2C3CC[C@]3(C)C(=O)CC[C@@H]23)c1C (some centres not stated) , thanks.
Found: 53.6

Lookup: Also need Cn1cc(-c2csc(-c3cn(C)c4ncccc34)n2)c2cc(F)cnc21 , thanks.
Found: 60.7

Lookup: Also need c1csc([C@@H]2C[C@@H]3Cc4ccc5ccccc5c4N2O3)c1 , thanks.
Found: 103

Lookup: Also need O=C(CCc1nnc2sc(-c3ccc(Cl)cc3Cl)nn12)c1nc2ccccc2[nH]1 , thanks.
Found: -27

Lookup: Also need N#Cc1cnc2cc(OC[C@H](O)CO)c(NC(=O)CC3CSSC3)cc2c1Nc1ccc(OCc2cccc(F)c2)c(Cl)c1 , thanks.
Found: -81.8

Lookup: Also need CCN(CC)c1ccc(N=Nc2cc(Cl)ccc2Cl)c(NC(=O)CCC(=O)O)c1 , thanks.
Found: 101

Lookup: Also need CC1(C)OC(=O)C(=Cc2ccccc2Br)C(=O)O1 , thanks.
Found: 108
